# Tested on: RPS6KA5(Kin.Dom.2-C-terminal);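 also: KINOMEscan kinase panel screen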
# Test Parameters: concentration: 1 μM,replicates: in singlicate; n = 1
Endpoint: %Inh (%)
Answers are plain numbers, in %.

Field: example entries. Status: answers known.
Compound: CN(C)CC(O)COc1ccc(Nc2nccc(-c3cnn4nc(N5CCOCC5)ccc34)n2)cc1 (stereo not drawn)
Endpoint: %Inh
Reading: 0
//
Compound: CNC(=O)c1ccccc1Sc1ccc2c(/C=C/c3ccccn3)n[nH]c2c1
Endpoint: %Inh
Reading: 0

Exercise: Lab note: need %Inh for NC(=O)c1cc(-c2ccccc2)cc2c(C3CCNCC3)c[nH]c12 on RPS6KA5(Kin.Dom.2-C-terminal), anyone have it?
Key: 4
